Test system: Plasma
Protocol: Drug level in cynomolgus monkey plasma assessed as compound formation treated with [14C]brivanib alaninate at 10 mg/kg, po administered as single dose via gavage measured after 12 hrs by HPLC analysis
Assay type: ADME, organism-based, Macaca fascicularis
Test conditions: in vivo

- Sample smiles: "Cc1cc2c(F)c(Oc3ncnn4cc(OCC(=O)O)c(C)c34)ccc2[nH]1"
  System: "Plasma"
  Scale unit: "%"
  Compound recovery: 3.3
- Sample smiles: "Cc1cc2c(F)c(Oc3ncnn4cc(OC[C@@H](C)O)c(C)c34)ccc2[nH]1"
  System: "Plasma"
  Scale unit: "%"
  Compound recovery: 71.9
- Sample smiles: "Cc1c(OC[C@@H](C)O)cn2ncnc(Oc3ccc4[nH]c(C(=O)O)cc4c3F)c12"
  System: "Plasma"
  Scale unit: "%"
  Compound recovery: 3.5
- Sample smiles: "Cc1c(OC[C@@H](C)OS(=O)(=O)O)cn2ncnc(Oc3ccc4[nH]c(CO)cc4c3F)c12"
  System: "Plasma"
  Scale unit: "%"
  Compound recovery: 3
- Sample smiles: "Cc1cc2c(F)c(Oc3ncnn4cc(OS(=O)(=O)O)c(C)c34)ccc2[nH]1"
  System: "Plasma"
  Scale unit: "%"
  Compound recovery: 5.7
- Sample smiles: "Cc1c(OS(=O)(=O)O)cn2ncnc(Oc3ccc4[nH]c(C(=O)O)cc4c3F)c12"
  System: "Plasma"
  Scale unit: "%"
  Compound recovery: 12.5

Just for reference, ChEMBL document CHEMBL3526109 is where these values come from.
